biological target: DNA (cytosine-5)-methyltransferase 3A (Homo sapiens, UniProt Q9Y6K1); assay: Inhibition of human DNMT3A catalytic domain (623 to 912 amino acids) at 10 uM after 1 hr by fluorescence assay
Sequence (Q9Y6K1 whole entry, looked up, the tested form may be a part): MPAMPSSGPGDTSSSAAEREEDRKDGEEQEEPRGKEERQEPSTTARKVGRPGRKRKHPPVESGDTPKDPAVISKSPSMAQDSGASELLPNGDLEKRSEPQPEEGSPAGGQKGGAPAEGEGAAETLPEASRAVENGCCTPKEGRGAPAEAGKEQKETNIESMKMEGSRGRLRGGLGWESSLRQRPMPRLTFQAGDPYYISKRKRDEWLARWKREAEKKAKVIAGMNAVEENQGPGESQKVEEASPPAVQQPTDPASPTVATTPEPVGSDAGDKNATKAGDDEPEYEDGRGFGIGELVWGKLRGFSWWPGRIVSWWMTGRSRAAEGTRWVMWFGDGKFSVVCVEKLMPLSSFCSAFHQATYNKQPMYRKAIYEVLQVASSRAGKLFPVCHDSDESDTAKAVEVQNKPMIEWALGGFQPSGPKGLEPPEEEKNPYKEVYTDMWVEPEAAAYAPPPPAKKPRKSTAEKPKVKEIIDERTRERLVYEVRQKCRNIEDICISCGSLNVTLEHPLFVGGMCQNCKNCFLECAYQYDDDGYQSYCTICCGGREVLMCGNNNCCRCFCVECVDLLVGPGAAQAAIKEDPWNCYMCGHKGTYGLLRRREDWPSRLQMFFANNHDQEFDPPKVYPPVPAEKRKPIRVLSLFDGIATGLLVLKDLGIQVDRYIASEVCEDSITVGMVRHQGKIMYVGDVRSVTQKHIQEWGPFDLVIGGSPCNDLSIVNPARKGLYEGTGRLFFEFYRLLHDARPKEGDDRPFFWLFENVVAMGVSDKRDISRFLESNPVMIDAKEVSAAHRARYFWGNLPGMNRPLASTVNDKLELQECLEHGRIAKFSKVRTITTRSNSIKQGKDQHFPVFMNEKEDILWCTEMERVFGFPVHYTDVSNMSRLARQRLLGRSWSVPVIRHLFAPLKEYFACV
Active and inactive are the calls of the source. The calls are words filed in the database; no cut-off is given here.
property_name: inhibition

{"columns": ["molecule", "reading"],
 "data": [
  ["COc1ccc(Cl)cc1C(=O)N[C@@H](Cc1ccc(OCC(=O)O)cc1)C(=O)O", "> 13%"],
  ["COc1ccc(Cl)cc1C(=O)NCc1ccc(CCC(=O)O)cc1", "> 13%"],
  ["COc1ccc(Cl)cc1C(=O)Nc1ccc(CCC(=O)O)cc1", "> 13%"],
  ["O=C(O)CCc1ccc(CCNC(=O)c2cc(C(F)(F)F)ccc2Cl)cc1", "inactive"],
  ["COc1ccc(Cl)cc1C(=O)NCCc1ccc(OCC(=O)O)cc1", "> 13%"],
  ["COc1ccc(Cl)cc1C(=O)NCCc1ccc(CCC(=O)O)cc1", "inactive"],
  ["COc1ccc(Cl)cc1C(=O)NCCc1ccc(O)cc1", "> 13%"]
]}

Could you now consider this next compound?
Qu. Tell me the measured inhibition of O=C(O)CCc1ccc(CCNC(=O)c2ccc([N+](=O)[O-])cc2)cc1 , please.
Ans. > 13%
